Target: Recombinant human integrin ανβ6 (Homo sapiens, UniProt P06756+P18564)
Sequence (P18564 22-707 limits assumed, one chain of several): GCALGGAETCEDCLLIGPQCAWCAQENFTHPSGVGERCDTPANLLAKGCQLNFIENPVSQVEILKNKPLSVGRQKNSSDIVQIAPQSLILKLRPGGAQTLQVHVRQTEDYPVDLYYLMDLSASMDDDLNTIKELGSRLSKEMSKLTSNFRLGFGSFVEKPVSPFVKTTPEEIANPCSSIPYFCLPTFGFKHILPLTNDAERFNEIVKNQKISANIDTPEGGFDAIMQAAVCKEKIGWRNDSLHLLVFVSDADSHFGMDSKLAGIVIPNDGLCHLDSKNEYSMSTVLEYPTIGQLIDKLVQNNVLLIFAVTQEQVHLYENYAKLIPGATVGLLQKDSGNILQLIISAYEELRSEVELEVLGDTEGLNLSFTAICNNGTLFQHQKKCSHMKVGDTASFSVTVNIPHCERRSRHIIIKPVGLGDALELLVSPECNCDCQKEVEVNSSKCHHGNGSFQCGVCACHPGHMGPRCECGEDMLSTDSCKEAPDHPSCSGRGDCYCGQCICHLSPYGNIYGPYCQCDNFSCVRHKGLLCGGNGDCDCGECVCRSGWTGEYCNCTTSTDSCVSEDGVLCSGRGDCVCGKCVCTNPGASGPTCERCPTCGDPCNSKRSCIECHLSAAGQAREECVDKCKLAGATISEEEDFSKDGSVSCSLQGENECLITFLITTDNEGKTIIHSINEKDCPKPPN
Assay: Solid Phase Receptor Assay (SPRA) for ανβ6 function
Details: plate-bound human LAP; read-out: αvβ6 SPRA IC50
Where a name gives a salt, the structure may show the parent alone.
A collection of molecules and their measured IC50
Numbers only; they are read as nM.

COc1ccc(C(CC(=O)O)Cc2cc(OCCc3ccc4c(n3)NCCC4)n(C)n2)cc1F (stereo not drawn) :: 99
COc1ccc([C@H](CC(=O)O)Cc2cc(OCCc3ccc4c(n3)NCCC4)n(C)n2)cc1F :: 49

Moving on to the next molecule.
Q: Form entry - test system: Recombinant human integrin ανβ6 (Homo sapiens, UniProt P06756+P18564); read-out: IC50; molecule: COc1ccc(C(F)(F)F)cc1C(CC(=O)O)Cc1cc(OCCc2ccc3c(n2)NCCC3)n(C)n1 (stereo not drawn) [Example 13, Trifluoroacetate]
A: 51

====

Target: Recombinant human integrin ανβ8 (Homo sapiens, UniProt P06756+P26012)
Sequence (P26012 43-684 limits assumed, one chain of several): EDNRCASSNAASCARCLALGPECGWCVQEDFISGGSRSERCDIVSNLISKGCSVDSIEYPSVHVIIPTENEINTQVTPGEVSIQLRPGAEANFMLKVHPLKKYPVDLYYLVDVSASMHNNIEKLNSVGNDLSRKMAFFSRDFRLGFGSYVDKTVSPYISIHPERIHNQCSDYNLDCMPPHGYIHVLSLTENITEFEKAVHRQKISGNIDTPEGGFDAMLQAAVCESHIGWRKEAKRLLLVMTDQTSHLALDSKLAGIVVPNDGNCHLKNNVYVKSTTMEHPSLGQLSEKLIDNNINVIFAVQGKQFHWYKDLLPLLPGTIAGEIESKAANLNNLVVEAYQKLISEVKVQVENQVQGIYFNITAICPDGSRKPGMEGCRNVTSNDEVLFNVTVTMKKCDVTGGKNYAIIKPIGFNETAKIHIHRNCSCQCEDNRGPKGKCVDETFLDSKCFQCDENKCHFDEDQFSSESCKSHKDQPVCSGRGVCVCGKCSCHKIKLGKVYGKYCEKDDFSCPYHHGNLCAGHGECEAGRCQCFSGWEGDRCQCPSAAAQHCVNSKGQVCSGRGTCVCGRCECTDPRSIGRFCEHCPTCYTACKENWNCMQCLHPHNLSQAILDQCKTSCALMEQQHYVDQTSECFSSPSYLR
Assay: Solid Phase Receptor Assay (SPRA) for ανβ8 function
Settings: plate-bound human LAP; read-out: αvβ8 SPRA IC50
Structures can show the parent of a compound that is named as a salt.
Recorded IC50 split into classes b0 (below 20 nM), b1 (20 nM to below 50 nM), b2 (50 nM or more)

Reference set, count: 6
CC(C)c1cc(Br)cc(C(CC(=O)O)Cc2cc(OCCc3ccc4c(n3)NCCC4)n(C)n2)c1 (centres unmarked) [Example 40, trifluoroacetate] :: b0
COc1ccc(C(F)(F)F)cc1C(CC(=O)O)Cc1cc(OCCc2ccc3c(n2)NCCC3)n(C)n1 (centres unmarked) [Example 13, Trifluoroacetate] :: b1
COc1cc(C(C)(C)C)ccc1C(CC(=O)O)Cc1cc(OCCc2ccc3c(n2)NCCC3)n(C)n1 (centres unmarked) [Example 34] :: b1
CC(C)(C)c1cc(Br)cc(C(CC(=O)O)Cc2cc(OCCc3ccc4c(n3)NCCC4)n(CC(F)(F)F)n2)c1 (centres unmarked) [Example 41, Trifluoroacetate] :: b0
Cn1nc(CC(CC(=O)O)c2ccc(Br)c(F)c2)cc1OCCc1ccc2c(n1)NCCC2 (centres unmarked) [Example 4] :: b2
COc1ccc(C#N)cc1C(CC(=O)O)Cc1cc(OCCc2ccc3c(n2)NCCC3)n(C)n1 (centres unmarked) [Example 46, Trifluoroacetate] :: b1

Q: Could you tell me which band Cn1nc(CC(CC(=O)O)c2cc(C(F)(F)F)cc(C(C)(C)C(F)(F)F)c2)cc1OCCc1ccc2c(n1)NCCC2 (centres unmarked) [Example 25] belongs to?
A: b0

Q: For Cn1nc(CC(CC(=O)O)c2cc(F)cc(Cl)c2)cc1OCCc1ccc2c(n1)NCCC2 (centres unmarked) [Example 2] , which IC50 bin applies?
A: b1

Q: GET /class?item= Cn1nc(CC(CC(=O)O)c2cc(Br)cc(OC(F)(F)F)c2)cc1OCCc1ccc2c(n1)NCCC2 (centres unmarked) [Example 11]
A: b1

====

Target: Recombinant human integrin ανβ1 (Homo sapiens, UniProt P05556+P06756)
Sequence (P06756 31-992 limits assumed): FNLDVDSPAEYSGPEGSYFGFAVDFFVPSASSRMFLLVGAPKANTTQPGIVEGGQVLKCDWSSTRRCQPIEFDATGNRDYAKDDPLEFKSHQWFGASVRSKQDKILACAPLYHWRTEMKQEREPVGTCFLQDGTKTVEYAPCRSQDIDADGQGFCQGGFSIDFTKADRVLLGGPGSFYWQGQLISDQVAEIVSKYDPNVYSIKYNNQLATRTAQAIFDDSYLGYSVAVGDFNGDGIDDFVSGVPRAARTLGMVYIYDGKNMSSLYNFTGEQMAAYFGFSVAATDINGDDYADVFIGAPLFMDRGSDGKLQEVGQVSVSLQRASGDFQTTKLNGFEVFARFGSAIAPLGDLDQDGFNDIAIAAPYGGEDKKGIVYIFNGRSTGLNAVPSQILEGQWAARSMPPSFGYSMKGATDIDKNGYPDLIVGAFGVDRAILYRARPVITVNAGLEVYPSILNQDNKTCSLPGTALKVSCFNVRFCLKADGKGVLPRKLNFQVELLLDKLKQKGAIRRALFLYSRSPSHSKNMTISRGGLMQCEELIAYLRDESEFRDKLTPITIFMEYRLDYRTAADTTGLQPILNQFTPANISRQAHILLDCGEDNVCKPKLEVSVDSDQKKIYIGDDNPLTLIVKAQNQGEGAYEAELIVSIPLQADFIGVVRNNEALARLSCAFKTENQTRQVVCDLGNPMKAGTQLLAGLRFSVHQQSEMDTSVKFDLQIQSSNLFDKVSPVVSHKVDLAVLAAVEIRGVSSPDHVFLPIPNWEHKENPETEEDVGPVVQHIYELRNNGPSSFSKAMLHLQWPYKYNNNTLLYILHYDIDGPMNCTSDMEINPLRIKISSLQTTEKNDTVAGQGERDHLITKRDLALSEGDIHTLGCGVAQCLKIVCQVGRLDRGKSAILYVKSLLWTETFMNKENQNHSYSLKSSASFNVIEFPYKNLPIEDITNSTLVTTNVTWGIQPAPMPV
Sequence (P05556 21-728 limits assumed): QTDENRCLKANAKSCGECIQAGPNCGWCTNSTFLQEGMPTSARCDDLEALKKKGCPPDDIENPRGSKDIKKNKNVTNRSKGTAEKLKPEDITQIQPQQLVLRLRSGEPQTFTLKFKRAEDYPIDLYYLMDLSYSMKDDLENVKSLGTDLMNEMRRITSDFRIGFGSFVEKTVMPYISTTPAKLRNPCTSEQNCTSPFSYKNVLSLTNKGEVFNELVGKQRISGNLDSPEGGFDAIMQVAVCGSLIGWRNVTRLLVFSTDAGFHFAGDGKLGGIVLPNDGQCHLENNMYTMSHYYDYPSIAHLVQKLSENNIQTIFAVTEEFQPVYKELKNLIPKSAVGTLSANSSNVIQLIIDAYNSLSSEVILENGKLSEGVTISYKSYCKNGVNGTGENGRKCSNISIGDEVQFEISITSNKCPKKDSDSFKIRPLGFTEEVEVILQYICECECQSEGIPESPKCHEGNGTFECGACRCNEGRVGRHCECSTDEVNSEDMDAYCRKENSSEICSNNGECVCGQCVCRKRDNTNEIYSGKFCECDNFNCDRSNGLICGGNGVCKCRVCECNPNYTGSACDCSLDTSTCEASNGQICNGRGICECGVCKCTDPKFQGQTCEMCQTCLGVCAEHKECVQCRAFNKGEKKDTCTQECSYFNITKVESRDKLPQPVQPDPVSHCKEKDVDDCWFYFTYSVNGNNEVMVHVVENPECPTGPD
Experiment: Solid Phase Receptor Assay (SPRA) for ανβ1 function
Conditions: plate-bound human fibronectin; read-out: αvβ1 SPRA IC50
Counter-ions that a name gives are not always drawn.
Listed here are compounds together with their documented IC50.
Please respond with the number in nM and leave the unit unwritten.

Some solved entries appear below for comparison.
Cn1nc(CC(CC(=O)O)c2cc(C#N)cc(C(C)(C)C)c2)cc1OCCc1ccc2c(n1)NCCC2 (centres unmarked) [Example 17] :: 4.4
COCC1(c2cc(C(CC(=O)O)Cc3cc(OCCc4ccc5c(n4)NCCC5)n(C)n3)cc(C(F)(F)F)c2)CCOCC1 (centres unmarked) [Example 31] :: 1.4
Cn1nc(CC(CC(=O)O)c2cc(Cl)cc(C(C)(C)C(F)(F)F)c2)cc1OCCc1ccc2c(n1)NCCC2 (centres unmarked) [Example 27] :: 4.4
COc1ccc(C(=O)O)cc1C(CC(=O)O)Cc1cc(OCCc2ccc3c(n2)NCCC3)n(C)n1 (centres unmarked) [Example 48, Trifluoroacetate] :: 19

Would you kindly look at the next entry?
Q: Which IC50 reading was recorded for the compound Cn1nc(CC(CC(=O)O)c2ccc(F)c(C#N)c2)cc1OCCc1ccc2c(n1)NCCC2 (centres unmarked) [Example 7] ?
A: 7
